Conditions: human
For each entry below, report its Hepatotoxicity (granulomatous hepatitis) value.
Please give the numeric answer without any surrounding text.

(Q) Look up Hepatotoxicity (granulomatous hepatitis): CC(O)(CS(=O)(=O)c1ccc(F)cc1)C(=O)Nc1ccc(C#N)c(C(F)(F)F)c1 (stereo not drawn) [BICALUTAMIDE]
(A) 0

(Q) GET /values?readout=Hepatotoxicity (granulomatous hepatitis)&item= COC(=O)C1=C(C)NC(C)=C(C(=O)O[C@H]2CCN(Cc3ccccc3)C2)[C@H]1c1cccc([N+](=O)[O-])c1
(A) 0

(Q) Fill in: Hepatotoxicity (granulomatous hepatitis) of CNC(=O)OCc1cccc(COC(=O)NC)n1 [PYRICARBATE] is ___
(A) 0

(Q) Any idea what Hepatotoxicity (granulomatous hepatitis) was measured for O=C(CCCCC(=O)Nc1c(I)cc(I)c(C(=O)O)c1I)Nc1c(I)cc(I)c(C(=O)O)c1I [IODIPAMIDE] ?
(A) 0

(Q) Hepatotoxicity (granulomatous hepatitis) for CCN1CCCC1CNC(=O)c1cc(S(=O)(=O)CC)c(N)cc1OC (stereo not drawn) [AMISULPRIDE] ?
(A) 0

(Q) Looking for the measured Hepatotoxicity (granulomatous hepatitis) of CCC[C@@H]1C[C@@H](C(=O)N[C@@H]([C@H]2O[C@H](SC)[C@H](O)[C@@H](O)[C@H]2O)[C@H](C)Cl)N(C)C1 , can you help?
(A) 1

(Q) For the compound C[C@](N)(Cc1ccc(O)c(O)c1)C(=O)O , what Hepatotoxicity (granulomatous hepatitis) is on record?
(A) 8

(Q) Name the recorded Hepatotoxicity (granulomatous hepatitis) for CCCCOCC(CN1C(=O)NC(=O)C(CC)(c2ccccc2)C1=O)OC(N)=O (stereo not drawn) [FEBARBAMATE] .
(A) 1

----------
Conditions: human, serum
Flag rule - Hepatotoxicity (acute) less than 2 flags Yes; the remaining entries get No.

(Q) Determine whether this compound shows Hepatotoxicity (acute) lower than 2 (ties excluded): Cc1c(-c2ccccc2)oc2c(C(=O)OCCN3CCCCC3)cccc2c1=O [FLAVOXATE]
(A) Yes

(Q) Does this compound meet the criterion Hepatotoxicity (acute) < 2? COc1nc(C)nc(Cl)c1N=C1NCCN1
(A) Yes

(Q) Please determine if CCn1cc(C(=O)O)c(=O)c2cnc(N3CCNCC3)nc21 is below 2 in terms of Hepatotoxicity (acute).
(A) Yes

(Q) Would you kindly verify if Hepatotoxicity (acute) of FC(F)(F)C(Cl)Br (configuration not stated) is strictly less than 2?
(A) No

(Q) Identify whether the compound N[C@@H]1[C@H]2CN(c3nc4c(cc3F)c(=O)c(C(=O)O)cn4-c3ccc(F)cc3F)C[C@@H]12 records Hepatotoxicity (acute) below 2.
(A) No

(Q) Hello, I'm reviewing records and need to know if Hepatotoxicity (acute) of O=C(O)c1ccccc1C(=O)Nc1ccc(S(=O)(=O)Nc2nccs2)cc1 is below 2. Could you check?
(A) Yes

(Q) Is the reported Hepatotoxicity (acute) for Nc1ccn([C@@H]2CS[C@H](CO)O2)c(=O)n1 strictly below 2?
(A) No

(Q) Is Hepatotoxicity (acute) strictly under 2 for the entry COc1cc2c(c(OC)c1OC)-c1ccc(OC)c(=O)cc1[C@@H](NC(C)=O)CC2 ?
(A) No

(Q) Is it true that Hepatotoxicity (acute) reported for N[C@@H]1CN(c2c(F)cc3c(=O)c(C(=O)O)cn([C@@H]4C[C@@H]4F)c3c2Cl)CC12CC2 [SITAFLOXACIN ANHYDROUS] is less than 2?
(A) Yes

(Q) Item CN1C[C@H](CC#N)C[C@@H]2c3cccc4[nH]c(Cl)c(c34)C[C@H]21 : Hepatotoxicity (acute) beneath 2, strictly?
(A) No

(Q) Find out if reported Hepatotoxicity (acute) for CC[C@H]1[C@@H]2C[C@H]3[C@@H]4N(C)c5ccccc5[C@]45C[C@@H]([C@@H]2[C@H]5O)N3[C@@H]1O is less than 2
(A) No

(Q) Problem: For the compound Nc1ccc(S(N)(=O)=O)cc1 [SULFANILAMIDE] , is Hepatotoxicity (acute) under 2?
(A) No

(Q) Lab note: confirm whether the reported Hepatotoxicity (acute) for this compound is below 2, equality not counting. compound: O=C(O)c1cn(C2CC2)c2cc(N3CCNCC3)c(F)cc2c1=O
(A) No

(Q) Hepatotoxicity (acute) under 2? Item: CN1CCc2cccc3c2[C@H]1Cc1ccc(O)c(O)c1-3
(A) Yes

(Q) API: query returns whether the compound falls strictly under 2 in Hepatotoxicity (acute). Query: CN(C)[C@@H]1C(O)=C(C(=O)NCN2CCCC2)C(=O)[C@@]2(O)C(O)=C3C(=O)c4c(O)cccc4[C@@](C)(O)[C@H]3C[C@@H]12
(A) Yes

(Q) Lab log: compare recorded Hepatotoxicity (acute) with 2; is it strictly lower for CCCC(=O)O[C@H]1[C@H](C)O[C@@H](O[C@H]2[C@H](N(C)C)[C@@H](O)[C@H](O[C@H]3[C@@H](CC=O)C[C@@H](C)[C@@H](O)/C=C/C=C/C[C@@H](C)OC(=O)C[C@@H](O)[C@@H]3OC)O[C@@H]2C)C[C@@]1(C)OC(=O)CC ?
(A) Yes

(Q) Here's an entry: CC(C)(Oc1ccc(Cl)cc1)C(=O)OCCOC(=O)c1cccnc1 [ETOFIBRATE] . Is its Hepatotoxicity (acute) below 2?
(A) Yes

(Q) # check: Hepatotoxicity (acute) < 2 for NS(=O)(=O)c1cc2c(cc1Cl)NC(CC1CCCC1)NS2(=O)=O (configuration not stated) [CYCLOPENTHIAZIDE]
(A) Yes

(Q) Threshold test, Hepatotoxicity (acute) < 2: C=C1c2cccc(O)c2C(=O)C2=C(O)[C@]3(O)C(=O)C(C(N)=O)=C(O)[C@@H](N(C)C)[C@@H]3[C@@H](O)[C@H]12
(A) Yes

(Q) I'd appreciate it if you could check whether CC(C)(CNC(N)=O)NCC(O)COC(=O)c1ccccc1F (configuration not stated) has Hepatotoxicity (acute) smaller than 2.
(A) Yes

(Q) Please state whether Hepatotoxicity (acute) is below 2 for CN(C)CC/C=C1/c2ccccc2Sc2ccc(Cl)cc21
(A) Yes

(Q) Please indicate whether the reported Hepatotoxicity (acute) of CCC(C)C(C)(COC(N)=O)COC(N)=O (configuration not stated) [MEBUTAMATE] is strictly below 2.
(A) Yes

(Q) hey, is Hepatotoxicity (acute) for O=C(O)CCCCCCNC1c2ccccc2CCc2ccccc21 lower than 2 or not?
(A) No

(Q) Strictly below 2: is that where Hepatotoxicity (acute) of CC(NCCc1ccc(O)cc1)C(O)c1ccc(O)cc1 (configuration not stated) sits?
(A) No

(Q) Does the reported Hepatotoxicity (acute) of the following compound sit strictly below 2? CC[C@H]1OC(=O)[C@H](C)[C@@H](O[C@H]2C[C@@](C)(OC)[C@@H](O)[C@H](C)O2)[C@H](C)[C@@H](O[C@@H]2O[C@H](C)C[C@H](N(C)C)[C@H]2O)[C@](C)(O)C[C@@H](C)/C(=N\OCOCCOC)[C@H](C)[C@@H](O)[C@]1(C)O
(A) No
